Test: Whole blood stability, mouse
Format: in vitro ADME
Settings: 60 min
Kindly apply the following: t if Whole Blood Stability % Remaining at 37° C. Mouse is less than 0.9%, f in every other case.

Some solved cases for reference:
COC(=O)c1ccc([C@H]2c3[nH]c4ccc(Cl)cc4c3C[C@H](C(=O)OC)N2C(=O)CCl)cc1
t
CC[C@H]1Cc2c([nH]c3ccccc23)[C@H](c2ccc(C(=O)OC)cc2)N1C(=O)CCl
t
COC(=O)[C@H]1Cc2c([nH]c3ccccc23)[C@H](c2ccc(S(=O)(=O)N[C@]34C[C@H]5C[C@H](C[C@H](C5)C3)C4)cc2)N1C(=O)/C=C/CCl
f
CN(C)C(=O)[C@H]1Cc2c([nH]c3ccccc23)[C@H](c2ccc(S(=O)(=O)N3CCC(O)CC3)cc2)N1C(=O)CCl
f
COC(=O)c1ccc([C@@H]2c3[nH]c4ccc(F)cc4c3C[C@H](C(=O)OC)N2C(=O)CCl)cc1
t

// query is_below(Whole Blood Stability % Remaining at 37° C. Mouse, 0.9%) for `C[C@H]1Cc2c([nH]c3ccccc23)[C@@H](c2ccc(C(=O)NC34CC(C3)C4)cc2)N1C(=O)CCl` ?
// result f

// query is_below(Whole Blood Stability % Remaining at 37° C. Mouse, 0.9%) for COC(=O)c1ccc([C@H]2c3[nH]c4ccccc4c3C[C@H](C(=O)OC)N2C(=O)CCl)cc1 [K601 (RSL3), reference compound] ?
// result t

// query is_below(Whole Blood Stability % Remaining at 37° C. Mouse, 0.9%) for `COC(=O)[C@H]1Cc2c([nH]c3ccccc23)[C@H](c2ccc(S(=O)(=O)N(C)C)cc2)N1C(=O)CCl` ?
// result f
